Hey, just so you know, these numbers are from patent US10604514B2.

- Tested on: Tau phosphorylation at Ser396 (pSer396), SH-SY5Y cells
- ASSAY_EXPLANATION: Tau phosphorylation at Ser396 (pSer396) in SH-SY5Y cells, ELISA/western blot;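 further: cell lysates probed for reduced Tau pSer396 via ELISA (colorimetric) or western blot (chemiluminescence), both with one shared pSer396 antibody, EC50 for lowering phosphorylation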
- Type: cell-based, human
- CONDITIONS: Homo sapiens; SH-SY5Y cells, overnight (16-18 h); read-out: pSer396 Tau EC50
pEC50: −log10 of the molar value.
ASSAY_ENDPOINT: pEC50

a = Cc1nnc(-c2ccc3cnc(NC(=O)C4CCN(CC(C)(F)F)CC4)cc3c2)s1
b = Cc1ncc(-c2ccc3cnc(NC(=O)[C@H]4CC[C@H](CN5CCOCC5)CC4)cc3c2)o1
### Prompt From the recorded data, which exceeds the other in pEC50: a or b ? // caller expects the label of the chosen entry
### Response a

1 = Cc1nnc(-c2ccc3cnc(NC(=O)N4CCN(C(C)C)CC4)cc3c2)s1
2 = [2H]c1c(NC(=O)C2CCN(C)CC2)ncc2ccc(-c3cnn(C)c3)cc12
3 = Cn1cc(-c2cc(F)c3cnc(NC(=O)[C@H]4CC[C@H](N5CCOCC5)CC4)cc3c2)cn1
### Prompt Rank entries according to their pEC50, from the largest number down. Answer with the labels in sequence, matching the requested order.
### Response 2, 3, 1
(2: 6.77, 3: 6.34, 1: 6.00)

====

- SYSTEM_UNDER_TEST: DYRK1A kinase (Homo sapiens (Human), UniProt Q13627)
- ASSAY_EXPLANATION: DYRK1A kinase assay (Ser/Thr 18 peptide Z-lyte, FRET)
- CONDITIONS: DYRK1A kinase; method text calls the value IC50
ASSAY_ENDPOINT: EC50 (nM)

* Cc1ncc(-c2ccc3cnc(NC(=O)C4CCN(C)CC4)cc3c2)o1 | 6

1 = Cc1cn2c(n1)CN(C(=O)Nc1cc3cc(-c4cnc(C)o4)ccc3cn1)CC2
2 = C[C@@H]1CN(C(=O)Nc2cc3cc(-c4cnn(C)c4)ccc3cn2)CCN1C
3 = C[C@H]1CN(C)CCN1C(=O)Nc1cc2cc(-c3cnn(C)c3)ccc2cn1
4 = CN1CCC(N(C)C(=O)Nc2cc3cc(-c4cnn(C)c4)cc(F)c3cn2)CC1
5 = Cc1nnc(-c2ccc3cnc(NC(=O)N4CCC(NC(CF)CF)CC4)cc3c2)s1
### Prompt Number of molecules to sort: 5. Sort criterion: EC50, ascending. Answer with the labels in sequence, matching the requested order.
### Response 1, 2, 3, 4, 5

a = Cc1nnc(-c2ccc3cnc(NC(=O)C4(F)CCNCC4)cc3c2)s1
b = CC(C)CN1CCC(CC(=O)Nc2cc3cc(-c4cnn(C)c4)ccc3cn2)C1 (stereo not shown)
c = Cc1ncc(-c2ccc3cnc(NC(=O)[C@H]4CC[C@H](N)CC4)cc3c2)o1
### Prompt Number of molecules to sort: 3. Sort criterion: EC50, ascending. Answer with the labels in sequence, matching the requested order.
### Response b, c, a

====

- SYSTEM_UNDER_TEST: DYRK1A kinase (Homo sapiens (Human), UniProt Q13627)
- ASSAY_EXPLANATION: DYRK1A kinase assay (Ser/Thr 18 peptide Z-lyte, FRET)
pEC50: −log10 of the molar value.
ASSAY_ENDPOINT: pEC50

I = [2H]c1c([2H])c([2H])c(C(=O)Nc2cc3cc(-c4cncn4C)ccc3cn2)c(F)c1[2H]
II = [2H]C([2H])([2H])Oc1ccc(C(=O)Nc2cc3cc(-c4cnc(C)n4C)ccc3cn2)cc1
### Prompt From the recorded data, which exceeds the other in pEC50: I or II ? // caller expects the label of the chosen entry
### Response I

a = [2H]c1c(NC(=O)C2CCN(C)CC2)ncc2ccc(-c3cnn(C)c3)cc12
b = [2H]C([2H])(C(=O)Nc1cc2cc(-c3cnc(C)n3C)ccc2cn1)c1ccc(F)cc1
### Prompt Smaller pEC50 value, a vs b ? // caller expects the label of the chosen entry
### Response b

a = Cn1cc(-c2ccc3cnc(NC(=O)c4cc[n+]([O-])c(N5CC[N+](C)([O-])CC5)c4)cc3c2)nn1
b = [2H]C([2H])(C(=O)Nc1cc2cc(-c3cncn3C)ccc2cn1)c1ccc(F)cc1
c = [2H]C([2H])([2H])c1ccc(C(=O)Nc2cc3cc(-c4cnc(C)n4C)ccc3cn2)cc1
d = Cn1cc(-c2ccc3cnc(NC(=O)c4ccnc(N5CC[N+](C)([O-])CC5)c4)cc3c2)nn1
### Prompt Rank entries according to their pEC50, from the largest number down. Answer with the labels in sequence, matching the requested order.
### Response d, a, b, c
(d: 9.00, a: 8.70, b: 8.40, c: 8.00)
